B1: POU domain, class 3, transcription factor 2, residues 356 to 411; numbered along this chain, P20265 (parent)
chain: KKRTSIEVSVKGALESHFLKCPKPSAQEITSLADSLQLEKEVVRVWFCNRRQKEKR

- Variants of: B1
- measurement.description: abundance fitness (aPCA) (normalised: wild type 0, dead -1); higher = more abundant; growth selection in yeast, the domain comes from the species named
- conditions: Homo sapiens
Please map values of abundance fitness to classes as shown: low (below -0.7), middle (-0.7 to below -0.2), high (-0.2 or more)

Input KKRNSIEVSVKGALESHFLKCPKPSAQEITSLADSLQLEKEVVRVWFCNRRQKEKR [T4N] ; output its category
high

GET /class?item= KKRTSIEVSVKGALESHFLKCPKPSAQEITSLADSPQLEKEVVRVWFCNRRQKEKR [L36P]
middle

Quick check: band for KKRTSIEVSVKGALESHFLKCPKPSAQEITSLADSLQLEKEVVRVWFENRRQKEKR [C48E]
high

Exercise: read the entry KKRTSIEVTVKGALESHFLKCPKPSAQEITSLADSLQLEKEVVRVWFCNRRQKEKR [S9T] and state which class it falls under.
high

Bin this entry: KKRTIIEVSVKGALESHFLKCPKPSAQEITSLADSLQLEKEVVRVWFCNRRQKEKR [S5I]
high

Using the reported abundance fitness, which band applies to KKRTSIEVSVKGALESHFLKCPKPSAQEITSLADSLQLEKEVVRVWFCNRRQKYKR [E54Y] ?
middle

Class? Entry: KKRTSIEVSVKGALESHFLKCPKPSAQEITSLADSLQLEKEVVRVWFCNWRQKEKR [R50W]
low

# bin lookup: classify KKRTSIEVSVKGALESHFLKCPKPSAQEITSLADSLQLEKEVVRVWECNRRQKEKR [F47E] by its abundance fitness
middle

Which class is correct for the following variant? KKRTSIEVSVKGALESHFLKCPKPSAQEITSLADSLQLEKEVVRVAFCNRRQKEKR [W46A]
low

Returns: class label. Input: KKRTYIEVSVKGALESHFLKCPKPSAQEITSLADSLQLEKEVVRVWFCNRRQKEKR [S5Y]
high

Lab log: KKRTSIEVSVKGALESHFLKCPKPSAQAITSLADSLQLEKEVVRVWFCNRRQKEKR [E28A] — assign abundance fitness category
middle

Just checking, what class would you give KKRTSIEVSVKGALESHFLKCPKPSAQEITSLADSGQLEKEVVRVWFCNRRQKEKR [L36G] here?
low

Each variant maps to one class by abundance fitness. Which class for KKRTSIEVSVKGALESAFLKCPKPSAQEITSLADSLQLEKEVVRVWFCNRRQKEKR [H17A] ?
high

Bin this entry: KKRTSIEVSVKGALESHFLKCPKPSAQEITSLADSLQLNKEVVRVWFCNRRQKEKR [E39N]
middle

Sort KKRTSIEVSVKGALESHFLKCPKPSAQEITSLADSLQLEKEVVRVWFCNSRQKEKR [R50S] into one of the categories.
middle

Record KKRTSYEVSVKGALESHFLKCPKPSAQEITSLADSLQLEKEVVRVWFCNRRQKEKR [I6Y] — which class?
middle

Class for KKRTSIEVSVKGALESHFLKCPKPSACEITSLADSLQLEKEVVRVWFCNRRQKEKR [Q27C] ?
high

Determine which band this variant sits in: KKRTSIEVSVKGALESHFLKCPKPSAQEITSLADSLQLEKEVVRVWFCNRIQKEKR [R51I]
middle

Which bin, given its abundance fitness, does KKRTSIEVSVKGALESHFLKCPKPSAQEIRSLADSLQLEKEVVRVWFCNRRQKEKR [T30R] occupy?
high

Record KKRTSIEVSVKGALESHFLKCPKPSAQEITSLADSLQLEKEVVRVWFCNRRQMEKR [K53M] — which class?
high

Into which bin does this variant go? KKRTSIEVSVKGALRSHFLKCPKPSAQEITSLADSLQLEKEVVRVWFCNRRQKEKR [E15R]
low

Quick check: band for KKRTSIEVSVKSALESHFLKCPKPSAQEITSLADSLQLEKEVVRVWFCNRRQKEKR [G12S]
high

Returns: class label. Input: KKRTSIEVSVKGALESHELKCPKPSAQEITSLADSLQLEKEVVRVWFCNRRQKEKR [F18E]
low

Form: Item = KKRTSIEVSVKGALESHFLNCPKPSAQEITSLADSLQLEKEVVRVWFCNRRQKEKR [K20N] ; Class = ?
middle
